# system.name: human L1 reverse transcriptase (MBP-RT fusion) (Homo sapiens, UniProt O00370)
# Construct: Human L1 ORF2 amino acid 238-1061 was inserted behind MBP gene in frame
# assay.overview: In vitro (cell-free) RT assay and kinetic analysis with recombinant L1 RT
# conditions: competitive with respect to dTTP (AZTTP, d4TTP) or dCTP (ddCTP, 3TCTP); Lineweaver-Burk; read-out: Ki against L1 RT
property.name: Ki (nM)
One number for each entry, in nM.

Worked examples, 3 molecules total:
>  <molecule>
Cc1cn([C@H]2C=C[C@@H](COP(=O)(O)OP(=O)(O)OP(=O)(O)O)O2)c(=O)[nH]c1=O

>  <number>
0.73

$$$$
>  <molecule>
Nc1ccn([C@@H]2CS[C@H](COP(=O)(O)OP(=O)(O)OP(=O)(O)O)O2)c(=O)n1

>  <number>
12.9

$$$$
>  <molecule>
Cc1cn([C@H]2C[C@H](N=[N+]=[N-])[C@@H](CO[P@](=O)(O)O[P@](=O)(O)OP(=O)(O)O)O2)c(=O)[nH]c1=O [AZTTP, azidothymidine triphosphate]

>  <number>
16.4

$$$$

Please list Ki recorded for the molecule Nc1ccn([C@H]2CC[C@@H](COP(=O)(O)OP(=O)(O)OP(=O)(O)O)O2)c(=O)n1 [ddCTP, 2'-3'-dideoxycytidine triphosphate]
0.72

The origin of these recorded values is paper PMC3103432.
